Target: GSK3a (GST-full length GSK3a) (Homo sapiens, UniProt P49840)
Construct: GST-full length GSK3a [SignalChem G08-10G]; purchased SignalChem G08-10G
Sequence (P49840 whole entry): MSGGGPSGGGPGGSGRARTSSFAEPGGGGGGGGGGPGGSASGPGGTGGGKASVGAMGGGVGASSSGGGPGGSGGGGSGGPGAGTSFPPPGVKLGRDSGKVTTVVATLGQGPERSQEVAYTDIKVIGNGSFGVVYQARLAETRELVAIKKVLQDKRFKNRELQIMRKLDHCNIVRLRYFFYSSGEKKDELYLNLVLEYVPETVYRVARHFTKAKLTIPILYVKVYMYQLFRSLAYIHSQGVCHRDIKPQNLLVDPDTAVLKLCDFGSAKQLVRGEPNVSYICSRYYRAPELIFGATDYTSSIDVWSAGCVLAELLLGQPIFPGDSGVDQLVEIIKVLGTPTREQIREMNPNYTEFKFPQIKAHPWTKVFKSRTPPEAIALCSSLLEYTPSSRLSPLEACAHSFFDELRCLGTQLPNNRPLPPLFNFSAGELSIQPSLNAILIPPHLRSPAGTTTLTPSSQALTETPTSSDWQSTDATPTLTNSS
Assay: GSK3a TR-FRET kinase inhibition assay
Format: biochemical
Conditions: 1 mM ATP; Table 3; read-out: GSK3a TR-FRET 1 mM ATP Average IC50
measurement.name: IC50

Observe how each entry below is paired with its result.
compound	measurement.name	result
CC1(C)CC(=O)C2=C(C1)Nc1ncc(F)c(C(F)(F)F)c1C2(C)c1cccc(S(C)(=O)=O)c1 (single isomer, unassigned) [Compound 166B]	IC50	5 to 20 µM
CC1(C)CC(=O)C2=C(C1)Nc1nccc(CC(F)(F)F)c1C2(C)c1ccccc1 (single isomer, unassigned) [Compound 132A]	IC50	1 to 5 µM
CC(C)c1cnc2c(c1)C(C)(c1ccccc1)C1=C(CC(C)(C)CC1=O)N2 (single isomer, unassigned) [Compound 119A]	IC50	5 to 20 µM
CC1(C)CC(=O)C2=C(C1)Nc1ncc(F)c(C3CC3)c1C2(C)c1cccc(S(C)(=O)=O)c1 (single isomer, unassigned) [Compound 153B]	IC50	5 to 20 µM
CCC1(c2cccc(-c3c(C)nn(C)c3C)c2)C2=C(CC(C)(C)CC2=O)Nc2ncccc21 (single isomer, unassigned) [Compound 150A]	IC50	0.1 to 1 µM

Data request: Which IC50 value belongs to CC1(C)CC(=O)C2=C(C1)Nc1ncc(C(F)(F)F)cc1C2(C)c1cccc(S(C)(=O)=O)c1 (single isomer, unassigned) [Compound 157B] ?
Data returned: 5 to 20 µM

Data request: Now the compound CC1(C)CC(=O)C2=C(C1)Nc1nccc(C(F)(F)F)c1C2(C)c1ccccc1 (single isomer, unassigned) [Compound 127B]
Data returned: 5 to 20 µM

Data request: Now the compound CC(C)(C)Cc1ccnc2c1C(C)(c1ccccc1)C1=C(CC(C)(C)CC1=O)N2 (single isomer, unassigned) [Compound 130A]
Data returned: 5 to 20 µM

Data request: Now the compound CC1(C)CC(=O)C2=C(C1)Nc1ncc(C#N)cc1C2(C)c1ccccc1 (single isomer, unassigned) [Compound 109B]
Data returned: 5 to 20 µM

Data request: Now the compound CC1(C)CC(=O)C2=C(C1)Nc1ncc(Br)c(F)c1C2(C)c1ccccc1 (single isomer, unassigned) [Compound 140A]
Data returned: 1 to 5 µM

---

IC50 for assorted compounds
Biological target: GSK3a (GST-full length GSK3a) (Homo sapiens, UniProt P49840)
Construct: GST-full length GSK3a [SignalChem G08-10G]; purchased SignalChem G08-10G
Experiment: GSK3a TR-FRET kinase inhibition assay
Assay type: biochemical
Details: 1 mM ATP; Table 3; read-out: GSK3a TR-FRET 1 mM ATP Average IC50

Observe how each entry below is paired with its result.
compound	assayed.system	IC50
CC1(C)CC(=O)C2=C(C1)Nc1ncc(F)cc1C2(C)c1cccc(S(C)(=O)=O)c1 (single isomer, unassigned) [Compound 139B]	GSK3a (GST-full length GSK3a) (Homo sapiens, UniProt P49840)	5000 to 20000 nM
CC1(C)CC(=O)C2=C(C1)Nc1ncc(C(F)(F)F)c(F)c1C2(C)c1ccccc1 (single isomer, unassigned) [Compound 136B]	GSK3a (GST-full length GSK3a) (Homo sapiens, UniProt P49840)	5000 to 20000 nM
CC1(C)CC(=O)C2=C(C1)Nc1ncc(F)c(F)c1C2(C)c1ccccc1 (single isomer, unassigned) [Compound 116B]	GSK3a (GST-full length GSK3a) (Homo sapiens, UniProt P49840)	100 to 1000 nM

Pending compound:
Data request: Which IC50 value belongs to CCC1(c2ccccc2)C2=C(CC(C)(C)CC2=O)Nc2ncc(F)cc21 (single isomer, unassigned) [Compound 114A] ?
Data returned: 100 to 1000 nM
